# assay-protocol: Plasma levels of isoxicam and bioavailability parameters after a single oral dose to beagle dogs
# Type: in vivo
# conditions: dog, in vivo, po, 100 mg, dog 120064, oral 100 mg (free acid equivalents)
# Experimental: The range for the individual animals was 51.4 to 63.0 µg/ml with three animals having a peak time of two hours and the final animal at eight hours. These plasma levels were considerably higher when compared to micronized isoxicam. […] Areas under the plasma concentrations versus time curve (AUC^0-∞) were calculated using the trapezoidal rule and extrapolated to infinity with the appropriate elimination rate constants.
reported-endpoint: AUC(0-inf) (µg·h/mL)
The reply should be a number in µg·h/mL, with the unit left off.

Request: Answer with the recorded AUC(0-inf) of Cc1cc(NC(=O)C2=C(O)c3ccccc3S(=O)(=O)N2C)no1 [arginine isoxicamate, L-arginine isoxicamate] only.
Response: 2950

----------
# assay-protocol: Plasma levels of isoxicam and bioavailability parameters after a single oral dose to beagle dogs
# Format: in vivo
# conditions: dog, in vivo, po, 100 mg, Mean of four dogs, oral 100 mg (free acid equivalents)
reported-endpoint: AUC(0-inf)
# do not omit the unit; it follows the number

Request: Answer with the recorded AUC(0-inf) of Cc1cc(NC(=O)C2=C(O)c3ccccc3S(=O)(=O)N2C)no1 [arginine isoxicamate, L-arginine isoxicamate] only.
Response: 2840 µg·h/mL

----------
# assay-protocol: Plasma levels of isoxicam and bioavailability parameters after a single oral dose to beagle dogs
# Format: in vivo
# conditions: dog, in vivo, po, 100 mg, dog 1942, oral 100 mg (free acid equivalents), elimination half-life; read-out: Half-life (converted)
reported-endpoint: half-life (h)
The reply should be a number in h, with the unit left off.

Request: Answer with the recorded half-life of Cc1cc(NC(=O)C2=C(O)c3ccccc3S(=O)(=O)N2C)no1 [arginine isoxicamate, L-arginine isoxicamate] only.
Response: 34.4

----------
# assay-protocol: Plasma levels of isoxicam and bioavailability parameters after a single oral dose to beagle dogs
# Assay type: in vivo
# conditions: dog, in vivo, po, 100 mg, dog 117668, oral 100 mg (free acid equivalents)
reported-endpoint: AUC(0-inf) (µg·h/mL)
The reply should be a number in µg·h/mL, with the unit left off.

Request: Answer with the recorded AUC(0-inf) of Cc1cc(NC(=O)C2=C(O)c3ccccc3S(=O)(=O)N2C)no1 [arginine isoxicamate, L-arginine isoxicamate] only.
Response: 2590

----------
# assay-protocol: Plasma levels of isoxicam and bioavailability parameters after a single oral dose to beagle dogs
# Format: in vivo
# conditions: dog, in vivo, po, 100 mg, dog 117668, oral 100 mg (free acid equivalents); read-out: Cmax
# Protocol: The range for the individual animals was 51.4 to 63.0 µg/ml with three animals having a peak time of two hours and the final animal at eight hours. These plasma levels were considerably higher when compared to micronized isoxicam. […] Areas under the plasma concentrations versus time curve (AUC^0-∞) were calculated using the trapezoidal rule and extrapolated to infinity with the appropriate elimination rate constants.
reported-endpoint: Cmax (µg/mL)
The reply should be a number in µg/mL, with the unit left off.

Request: Answer with the recorded Cmax of Cc1cc(NC(=O)C2=C(O)c3ccccc3S(=O)(=O)N2C)no1 [arginine isoxicamate, L-arginine isoxicamate] only.
Response: 59.3

----------
# assay-protocol: Plasma levels of isoxicam and bioavailability parameters after a single oral dose to beagle dogs
# Assay type: in vivo
# conditions: beagle, dog, in vivo, po, 100 mg, mean AUC^0-∞
reported-endpoint: AUC (µg·h/mL)
The reply should be a number in µg·h/mL, with the unit left off.

Request: Answer with the recorded AUC of Cc1cc(NC(=O)C2=C(O)c3ccccc3S(=O)(=O)N2C)no1 [micronized isoxicam, reference compound] only.
Response: 808

----------
# assay-protocol: Plasma levels of isoxicam and bioavailability parameters after a single oral dose to beagle dogs
# Type: in vivo
# conditions: dog, in vivo, po, 100 mg, Mean of four dogs, oral 100 mg (free acid equivalents); read-out: Cmax
# Description: The range for the individual animals was 51.4 to 63.0 µg/ml with three animals having a peak time of two hours and the final animal at eight hours. These plasma levels were considerably higher when compared to micronized isoxicam. […] Areas under the plasma concentrations versus time curve (AUC^0-∞) were calculated using the trapezoidal rule and extrapolated to infinity with the appropriate elimination rate constants.
reported-endpoint: Cmax (µg/mL)
The reply should be a number in µg/mL, with the unit left off.

Request: Answer with the recorded Cmax of Cc1cc(NC(=O)C2=C(O)c3ccccc3S(=O)(=O)N2C)no1 [arginine isoxicamate, L-arginine isoxicamate] only.
Response: 55.3

----------
# assay-protocol: Plasma levels of isoxicam and bioavailability parameters after a single oral dose to beagle dogs
# Type: in vivo
# conditions: dog, in vivo, po, 100 mg, dog 117668, oral 100 mg (free acid equivalents), elimination half-life; read-out: Half-life (converted)
reported-endpoint: half-life

Request: Answer with the recorded half-life of Cc1cc(NC(=O)C2=C(O)c3ccccc3S(=O)(=O)N2C)no1 [arginine isoxicamate, L-arginine isoxicamate] only.
Response: 27 h

----------
# assay-protocol: Plasma levels of isoxicam and bioavailability parameters after a single oral dose to beagle dogs
# Assay type: in vivo
# conditions: dog, in vivo, po, 100 mg, dog 1930, oral 100 mg (free acid equivalents), elimination half-life; read-out: Half-life (converted)
reported-endpoint: half-life (h)
The reply should be a number in h, with the unit left off.

Request: Answer with the recorded half-life of Cc1cc(NC(=O)C2=C(O)c3ccccc3S(=O)(=O)N2C)no1 [arginine isoxicamate, L-arginine isoxicamate] only.
Response: 38.8

----------
# assay-protocol: Plasma levels of isoxicam and bioavailability parameters after a single oral dose to beagle dogs
# Format: in vivo
# conditions: beagle, dog, in vivo, po, 100 mg, Mean Cmax
# Procedure: The range for the individual animals was 51.4 to 63.0 µg/ml with three animals having a peak time of two hours and the final animal at eight hours. These plasma levels were considerably higher when compared to micronized isoxicam. […] Areas under the plasma concentrations versus time curve (AUC^0-∞) were calculated using the trapezoidal rule and extrapolated to infinity with the appropriate elimination rate constants.
reported-endpoint: Cmax (ng/mL)
The reply should be a number in ng/mL, with the unit left off.

Request: Answer with the recorded Cmax of Cc1cc(NC(=O)C2=C(O)c3ccccc3S(=O)(=O)N2C)no1 [micronized isoxicam, reference compound] only.
Response: 15400

----------
# assay-protocol: Plasma levels of isoxicam and bioavailability parameters after a single oral dose to beagle dogs
# Type: in vivo
# conditions: dog, in vivo, po, 100 mg, dog 120064, oral 100 mg (free acid equivalents); read-out: Cmax
# Experimental: The range for the individual animals was 51.4 to 63.0 µg/ml with three animals having a peak time of two hours and the final animal at eight hours. These plasma levels were considerably higher when compared to micronized isoxicam. […] Areas under the plasma concentrations versus time curve (AUC^0-∞) were calculated using the trapezoidal rule and extrapolated to infinity with the appropriate elimination rate constants.
reported-endpoint: Cmax
# do not omit the unit; it follows the number

Request: Answer with the recorded Cmax of Cc1cc(NC(=O)C2=C(O)c3ccccc3S(=O)(=O)N2C)no1 [arginine isoxicamate, L-arginine isoxicamate] only.
Response: 51.8 µg/mL

----------
# assay-protocol: Plasma levels of isoxicam and bioavailability parameters after a single oral dose to beagle dogs
# Assay type: in vivo
# conditions: beagle, dog, in vivo, po, 100 mg, AUC^0-∞
reported-endpoint: AUC
# do not omit the unit; it follows the number

Request: Answer with the recorded AUC of Cc1cc(NC(=O)C2=C(O)c3ccccc3S(=O)(=O)N2C)no1 [micronized isoxicam, reference compound] only.
Response: 808 µg·h/mL

----------
# assay-protocol: Plasma levels of isoxicam and bioavailability parameters after a single oral dose to beagle dogs
# Type: in vivo
# conditions: beagle, dog, in vivo, po, 100 mg, Tmax (hours)
reported-endpoint: Tmax (h)
The reply should be a number in h, with the unit left off.

Request: Answer with the recorded Tmax of Cc1cc(NC(=O)C2=C(O)c3ccccc3S(=O)(=O)N2C)no1 [micronized isoxicam, reference compound] only.
Response: 4.2

----------
# assay-protocol: Plasma levels of isoxicam and bioavailability parameters after a single oral dose to beagle dogs
# Type: in vivo
# conditions: dog, in vivo, po, 100 mg, four dogs, 100 mg oral; read-out: Mean half-lives (elimination, linear regression of semilogarithmic data) (converted)
reported-endpoint: half-life (h)
The reply should be a number in h, with the unit left off.

Request: Answer with the recorded half-life of Cc1cc(NC(=O)C2=C(O)c3ccccc3S(=O)(=O)N2C)no1 [arginine isoxicamate, L-arginine isoxicamate] only.
Response: 36.2

----------
# assay-protocol: Plasma levels of isoxicam and bioavailability parameters after a single oral dose to beagle dogs
# Format: in vivo
# conditions: dog, in vivo, po, 100 mg, dog 1930, oral 100 mg (free acid equivalents); read-out: Tmax
reported-endpoint: Tmax (h)
The reply should be a number in h, with the unit left off.

Request: Answer with the recorded Tmax of Cc1cc(NC(=O)C2=C(O)c3ccccc3S(=O)(=O)N2C)no1 [arginine isoxicamate, L-arginine isoxicamate] only.
Response: 2

----------
# assay-protocol: Plasma levels of isoxicam and bioavailability parameters after a single oral dose to beagle dogs
# Type: in vivo
# conditions: dog, in vivo, po, 100 mg, dog 1942, oral 100 mg (free acid equivalents); read-out: Tmax
reported-endpoint: Tmax (h)
The reply should be a number in h, with the unit left off.

Request: Answer with the recorded Tmax of Cc1cc(NC(=O)C2=C(O)c3ccccc3S(=O)(=O)N2C)no1 [arginine isoxicamate, L-arginine isoxicamate] only.
Response: 2
